TEST_SYSTEM: recombinant HIV-1 protease (Human immunodeficiency virus type 1 group M subtype B)
Construct: Enzyme: recombinant HIV-1 protease expressed in E. Coli; purchased Bachem California, Inc. H-9040; host or cells: E. coli
EXPERIMENTAL_DETAILS: biochemical
REPORTED_CONDITIONS: Ki (pM), class symbols
Listed here: items and their measured Ki.

- COMPOUND: "CCOC(=O)C(CC)OP(=O)(COc1ccc(CC(NC(=O)OC2COC3OCCC23)C(O)CN(CC(C)C)S(=O)(=O)c2ccc(OC)cc2)cc1)Oc1ccccc1 (stereo not drawn) [Compound 5b]"
  Ki: "100 to 1000 pM"
- COMPOUND: "CC(C)CN(CC(O)C(Cc1ccc(OCP(=O)(NC(C)C(=O)OC(C)C)Oc2ccccc2)cc1)NC(=O)OC1CCOC1)S(=O)(=O)c1ccc(N)cc1 (stereo not drawn) [drawing 1864 R1=OPh R2=Ala-iPr]"
  Ki: "10 to 100 pM"

Enquiry: Note Ki for the compound shown: CCOC(=O)C(CC)OP(=O)(COc1ccc(CC(NC(=O)OC2COC3OCCC23)C(O)CN(CC(C)C)S(=O)(=O)c2ccc(OC)cc2)cc1)Oc1ccccc1 (stereo not drawn) [Compound 5a]
Return: 10 to 100 pM

* * *

TEST_SYSTEM: 84V90M (Human immunodeficiency virus type 1 group M subtype B, UniProt P04585, I572V/L578M)
EXPERIMENTAL_DETAILS: cell-based
REPORTED_CONDITIONS: Cell-based assay (MT-4)
Listed here: items and their measured pEC50.
Just so you know, pEC50 here is -log10 of the concentration in molar units; reply with that number alone.

Worked examples follow.
- COMPOUND: "CCOP(=O)(COc1ccc(CC2C(O)C(O)C(Cc3ccc(OC)cc3)N(Cc3cccnc3)C(=O)N2Cc2cccnc2)cc1)OCC (stereo not drawn) [OCH3, m-pyridine, OCH2PO3Et2]"
  ENDPOINT_RESULT: 6.12
- COMPOUND: "CCCCN1C(=O)N(Cc2ccc3[nH]nc(N)c3c2)C(Cc2ccccc2)C(O)C(O)C1Cc1ccccc1 (stereo not drawn) [DMP-851]"
  ENDPOINT_RESULT: 6.04
- COMPOUND: "CCOP(=O)(COc1ccc(CC2C(O)C(O)C(Cc3ccc(O)cc3)N(Cc3ccc(O)cc3)C(=O)N2Cc2ccc(O)cc2)cc1)OCC (stereo not drawn) [OH, Ph-pOH, OCH2PO3Et2]"
  ENDPOINT_RESULT: 5.72

Enquiry: Note pEC50 for the compound shown: O=C1N(Cc2ccccc2)C(Cc2ccccc2)C(O)C(O)C(Cc2ccc(OCP(=O)(O)O)cc2)N1Cc1ccccc1 (stereo not drawn)
Return: 5.61

* * *

Test system: 48V54V82S
EXPERIMENTAL_DETAILS: microbe, parasite or virus in culture
Format: cell-based, HIV
REPORTED_CONDITIONS: Human immunodeficiency virus 1, read-out: EC50 48V54V 82S
VALUE_TYPE: EC50
Could you give the number and then its unit, please?

Enquiry: Note EC50 for the molecule shown: Nc1n[nH]c2ccc(CN3C(=O)N(Cc4ccc(O)cc4)C(Cc4ccccc4)C(O)C(O)C3Cc3ccccc3)cc12 (stereo not shown) [p-OH]
Return: 39 nM

* * *

Listed here: items and their measured EC50.
TEST_SYSTEM: 84V90M (Human immunodeficiency virus type 1 group M subtype B, UniProt P04585, I572V/L578M)
EXPERIMENTAL_DETAILS: cell-based
REPORTED_CONDITIONS: Cell-based assay (MT-4)

Worked examples follow.
- COMPOUND: "CCOC(=O)C(C)NP(=O)(COc1cccc(CN2C(=O)N(Cc3ccc4[nH]nc(N)c4c3)C(Cc3ccccc3)C(O)C(O)C2Cc2ccccc2)c1)NC(C)C(=O)OCC (stereo not shown)"
  ENDPOINT_RESULT: "> 6 µM"
- COMPOUND: "CCOP(=O)(COc1ccc(CC2C(O)C(O)C(Cc3ccccc3)N(Cc3ccccc3)C(=O)N2Cc2ccccc2)cc1)OCC (stereo not shown)"
  ENDPOINT_RESULT: "2.46 µM"
- COMPOUND: "Nc1n[nH]c2ccc(CN3C(=O)N(Cc4ccc(OCc5ccccc5)cc4)C(Cc4ccccc4)C(O)C(O)C3Cc3ccccc3)cc12 (stereo not shown)"
  ENDPOINT_RESULT: "5.31 µM"

Enquiry: Note EC50 for the compound shown: CCOP(=O)(COCCCCN1C(=O)N(Cc2ccc3[nH]nc(N)c3c2)C(Cc2ccccc2)C(O)C(O)C1Cc1ccccc1)OCC (stereo not shown)
Return: 3.29 µM

Enquiry: Note EC50 for the compound shown: CCOP(=O)(COc1cccc(CN2C(=O)N(Cc3ccc4[nH]nc(N)c4c3)C(Cc3ccccc3)C(O)C(O)C2Cc2ccccc2)c1)OCC (stereo not shown)
Return: 3 µM

Enquiry: Note EC50 for the compound shown: O=C1N(Cc2ccccc2)C(Cc2ccc(O)cc2)C(O)C(O)C(Cc2ccc(O)cc2)N1Cc1ccccc1 (stereo not shown)
Return: 5.61 µM

Enquiry: Note EC50 for the compound shown: Nc1n[nH]c2ccc(CN3C(=O)N(Cc4ccc(OCP(=O)(OCc5ccccc5)OCc5ccccc5)cc4)C(Cc4ccccc4)C(O)C(O)C3Cc3ccccc3)cc12 (stereo not shown)
Return: 4.96 µM

* * *

EXPERIMENTAL_DETAILS: in vitro
REPORTED_CONDITIONS: human, CC50 (μM)
VALUE_TYPE: CC50

Enquiry: Note CC50 for the molecule shown: CCOP(=O)(COc1ccc(CC(NC(=O)OC2COC3OCCC23)C(O)CN(CC(C)C)S(=O)(=O)c2ccc(OC)cc2)cc1)OCC (stereo not shown) [drawing 1768 R1=OEt R2=OEt]
Return: 5 to 50 µM

* * *

Tested on: 48V82A90M
EXPERIMENTAL_DETAILS: microbe, parasite or virus in culture
Type: cell-based, HIV
REPORTED_CONDITIONS: read-out: EC50 48V82A 90M; Cell-based assay (MT-4), 48V82A90M
VALUE_TYPE: EC50
Could you give the number and then its unit, please?

Enquiry: Provide measured EC50 on 48V82A90M for O=C1N(Cc2ccccc2)C(Cc2ccccc2)C(O)C(O)C(Cc2ccc(OCP(=O)(O)O)cc2)N1Cc1ccccc1 (stereo not shown) please.
Return: 3.29 µM

* * *

TEST_SYSTEM: recombinant HIV-1 protease (Human immunodeficiency virus type 1 group M subtype B, UniProt P04585)
Construct: Enzyme: recombinant HIV-1 protease expressed in E. Coli; purchased Bachem California, Inc. H-9040; host or cells: E. coli
EXPERIMENTAL_DETAILS: biochemical
REPORTED_CONDITIONS: read-out: Ki
Listed here: items and their measured Ki.
Write down the numeric answer in nM and omit the unit.

- COMPOUND: "Nc1n[nH]c2ccc(CN3C(=O)N(Cc4cccc(OCP(=O)(OCc5ccccc5)OCc5ccccc5)c4)C(Cc4ccccc4)C(O)C(O)C3Cc3ccccc3)cc12 (stereo not shown)"
  ENDPOINT_RESULT: 0.177
- COMPOUND: "Nc1n[nH]c2ccc(CN3C(=O)N(Cc4cccc(O)c4)C(Cc4ccccc4)C(O)C(O)C3Cc3ccccc3)cc12 (stereo not shown)"
  ENDPOINT_RESULT: 0.128

Proceed to the following item.
Enquiry: Note Ki for the compound shown: CCOP(=O)(COc1cccc(CN2C(=O)N(Cc3ccc4[nH]nc(N)c4c3)C(Cc3ccccc3)C(O)C(O)C2Cc2ccccc2)c1)OCC (stereo not shown)
Return: 1.93

* * *

TEST_SYSTEM: 84V90M (Human immunodeficiency virus type 1 group M subtype B, UniProt P04585, I572V/L578M)
EXPERIMENTAL_DETAILS: biochemical
Type: biochemical, HIV
REPORTED_CONDITIONS: Enzymatic assay
Listed here: items and their measured IC50.
Write down the numeric answer in nM and omit the unit.

Worked examples follow.
- COMPOUND: "O=C1N(Cc2ccccc2)C(Cc2ccccc2)C(O)C(O)C(Cc2ccc(OCP(=O)(OCc3ccccc3)OCc3ccccc3)cc2)N1Cc1ccccc1 (centres unmarked)"
  ENDPOINT_RESULT: 158
- COMPOUND: "O=C1N(Cc2ccccc2)C(Cc2ccccc2)C(O)C(O)C(Cc2ccc(OCP(=O)(O)O)cc2)N1Cc1ccccc1 (centres unmarked)"
  ENDPOINT_RESULT: 210
- COMPOUND: "CCOP(=O)(CCNC(=O)Oc1ccc(CC2C(O)C(O)C(Cc3ccc(OC)cc3)N(Cc3cccc(N)c3)C(=O)N2Cc2cccc(N)c2)cc1)OCC (centres unmarked) [OCH3, Ph-mNH2, OCONH(CH2)2PO3Et2]"
  ENDPOINT_RESULT: 116

Enquiry: Note IC50 for the compound shown: CCOP(=O)(CCNC(=O)Oc1ccc(CC2C(O)C(O)C(Cc3ccc(OC)cc3)N(Cc3ccc(O)cc3)C(=O)N2Cc2ccc(O)cc2)cc1)OCC (centres unmarked) [OCH3, Ph-pOH, OCONH(CH2)2PO3Et2]
Return: 49

Enquiry: Note IC50 for the compound shown: CCOP(=O)(COc1ccc(CC2C(O)C(O)C(Cc3ccc(OC)cc3)N(Cc3cccc(N)c3)C(=O)N2Cc2cccc(N)c2)cc1)OCC (centres unmarked) [OCH3, Ph-mNH2, OCH2PO3Et2]
Return: 56
